Here the recorded IC50 is given for each entry.
biological target: Dipeptidyl peptidase 4 (Homo sapiens, UniProt P27487)
Sequence (P27487 whole entry): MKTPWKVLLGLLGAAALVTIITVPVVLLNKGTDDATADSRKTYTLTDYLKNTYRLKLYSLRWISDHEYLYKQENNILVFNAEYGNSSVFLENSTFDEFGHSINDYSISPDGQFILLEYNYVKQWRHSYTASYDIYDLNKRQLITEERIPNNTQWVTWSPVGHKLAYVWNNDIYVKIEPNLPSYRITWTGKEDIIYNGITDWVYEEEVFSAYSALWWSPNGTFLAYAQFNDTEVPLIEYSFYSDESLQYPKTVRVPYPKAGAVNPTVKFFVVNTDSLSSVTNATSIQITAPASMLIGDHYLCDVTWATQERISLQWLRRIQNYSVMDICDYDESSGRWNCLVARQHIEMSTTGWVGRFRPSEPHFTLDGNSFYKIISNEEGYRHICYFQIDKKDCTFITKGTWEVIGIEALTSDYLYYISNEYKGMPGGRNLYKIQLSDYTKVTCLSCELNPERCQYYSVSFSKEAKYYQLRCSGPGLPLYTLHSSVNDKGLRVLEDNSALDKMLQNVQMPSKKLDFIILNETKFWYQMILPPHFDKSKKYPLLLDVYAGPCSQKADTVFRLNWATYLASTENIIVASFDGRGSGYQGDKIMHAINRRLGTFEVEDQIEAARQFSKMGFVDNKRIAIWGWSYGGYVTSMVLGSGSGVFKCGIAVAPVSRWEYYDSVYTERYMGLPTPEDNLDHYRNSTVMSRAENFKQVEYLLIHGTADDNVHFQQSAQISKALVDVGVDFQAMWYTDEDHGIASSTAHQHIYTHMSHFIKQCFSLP
RECORDED ENDPOINT: IC50 (nM)

>>> result("Brc1nc2n(n1)CC(c1cc3ccccc3o1)=NN2")
28500
>>> result("CC1c2nnc(C(F)(F)F)n2CCN1C(=O)C[C@H](N)Cc1cc(F)c(F)cc1F.Cl (some centres undefined)")
4.3
>>> result("CO/N=C1\\CN(c2nc3c(cc2F)c(=O)c(C(=O)O)cn3C2CC2)CC1CN (centres undefined) [GEMIFLOXACIN]")
2700

---

Here the recorded pIC50 is given for each entry.
target: Voltage-gated inwardly rectifying potassium channel KCNH2 (Homo sapiens, UniProt Q12809); assay: Inhibition of hERG channel by patch clamp assay; assay type: toxicity
Sequence (Q12809 whole entry): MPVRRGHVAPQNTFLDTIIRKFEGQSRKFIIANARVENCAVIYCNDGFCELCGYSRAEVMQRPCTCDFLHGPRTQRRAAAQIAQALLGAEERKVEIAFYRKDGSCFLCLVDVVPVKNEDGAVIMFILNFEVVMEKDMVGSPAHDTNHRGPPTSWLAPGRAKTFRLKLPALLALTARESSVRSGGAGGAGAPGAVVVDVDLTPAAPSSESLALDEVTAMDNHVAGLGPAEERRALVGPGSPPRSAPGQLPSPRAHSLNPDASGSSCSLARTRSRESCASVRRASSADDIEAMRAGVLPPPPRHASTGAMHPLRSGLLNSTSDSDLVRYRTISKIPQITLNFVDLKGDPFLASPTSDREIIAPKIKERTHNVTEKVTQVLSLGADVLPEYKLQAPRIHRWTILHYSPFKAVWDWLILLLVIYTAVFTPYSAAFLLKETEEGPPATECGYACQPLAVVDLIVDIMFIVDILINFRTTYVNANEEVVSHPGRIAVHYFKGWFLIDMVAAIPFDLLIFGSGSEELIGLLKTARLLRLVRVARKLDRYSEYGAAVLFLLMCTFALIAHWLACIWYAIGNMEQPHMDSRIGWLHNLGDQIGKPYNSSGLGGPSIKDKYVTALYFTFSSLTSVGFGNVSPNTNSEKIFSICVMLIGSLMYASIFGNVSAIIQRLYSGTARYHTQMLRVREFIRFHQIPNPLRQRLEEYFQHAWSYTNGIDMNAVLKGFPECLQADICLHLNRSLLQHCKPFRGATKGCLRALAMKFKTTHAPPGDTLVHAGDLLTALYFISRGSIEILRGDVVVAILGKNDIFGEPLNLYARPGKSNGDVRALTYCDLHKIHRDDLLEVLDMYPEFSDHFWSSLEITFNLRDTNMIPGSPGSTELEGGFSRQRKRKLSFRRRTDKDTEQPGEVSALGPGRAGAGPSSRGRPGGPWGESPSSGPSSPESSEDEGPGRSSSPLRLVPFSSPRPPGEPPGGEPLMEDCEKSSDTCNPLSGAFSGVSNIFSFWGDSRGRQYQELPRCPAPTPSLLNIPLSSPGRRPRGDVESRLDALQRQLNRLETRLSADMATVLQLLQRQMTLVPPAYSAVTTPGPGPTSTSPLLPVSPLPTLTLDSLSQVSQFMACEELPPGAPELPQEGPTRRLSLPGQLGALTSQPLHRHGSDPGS
pIC50: −log10 of the molar value.
RECORDED ENDPOINT: pIC50

>>> result("N#C[C@@H]1C[C@H](F)CN1C(=O)[C@@H](N)Cc1cc(Cl)c(Cl)cc1Cl")
"< 4.40"
>>> result("N#C[C@@H]1[C@@H]2CCC[C@@H]2CN1C(=O)[C@@H](N)Cc1cc(F)c(F)cc1F")
"< 4.40"
